# Test system: tobacco leaves
# procedure_summary: Effect of peptide infiltration on tobacco leaves (lesion size)
# Assay type: in vivo
# experimental_conditions: D-amino acid lipopeptides; 150 µM, 100 µL infiltrated into tobacco leaves, lesion diameter, 48 h, at least three leaves; ± confidence interval
Where a SMILES comes first, the peptide text is derived from it. [ ]: non-standard residue; d: D form. The star is where a group is joined. Lauroyl = CCCCCCCCCCCC(=O)*; Hexanoyl = CCCCCC(=O)*; Butyryl = CCCC(=O)*
assay_readout: Size of the lesion (mm) 150 µM
Please reply with the bare figure in mm and do not write the unit itself.

Size of the lesion (mm) 150 µM reported for this compound CCCCCC(=O)NCCCC[C@H](NC(=O)[C@H](Cc1ccc(O)cc1)NC(=O)[C@H](CCCCN)NC(=O)[C@H](CC(C)C)NC(=O)[C@@H](NC(=O)[C@H](CCCCN)NC(=O)[C@H](CCCCN)NC(=O)[C@@H](Cc1ccccc1)NC(=O)[C@H](CC(C)C)NC(=O)[C@H](CCCCN)NC(=O)[C@H](CCCCN)NC(C)=O)[C@@H](C)CC)C(N)=O [BP495, Ac-KKLfKKILKYK(COC5H11)-NH2] (Ac-KKL[dF]KKILKYK(Hexanoyl)-NH2) : 6

Size of the lesion (mm) 150 µM reported for this compound CCCC(=O)NCCCC[C@H](NC(=O)[C@@H](NC(=O)[C@H](CCCCN)NC(=O)[C@H](CCCCN)NC(=O)[C@@H](Cc1ccccc1)NC(=O)[C@H](CC(C)C)NC(=O)[C@H](CCCCN)NC(=O)[C@H](CCCCN)NC(C)=O)[C@@H](C)CC)C(=O)N[C@@H](CCCCN)C(=O)N[C@@H](Cc1ccc(O)cc1)C(=O)N[C@@H](CC(C)C)C(N)=O [BP474, Ac-KKLfKKIK(COC3H7)KYL-NH2] (Ac-KKL[dF]KKIK(Butyryl)KYL-NH2) : 2

Size of the lesion (mm) 150 µM reported for this compound CCCCCCCCCCCC(=O)NCCCC[C@H](NC(=O)[C@H](CCCCN)NC(=O)[C@H](CCCCN)NC(C)=O)C(=O)N[C@H](Cc1ccccc1)C(=O)N[C@@H](CCCCN)C(=O)N[C@@H](CCCCN)C(=O)N[C@H](C(=O)N[C@@H](CC(C)C)C(=O)N[C@@H](CCCCN)C(=O)N[C@@H](Cc1ccc(O)cc1)C(=O)N[C@@H](CC(C)C)C(N)=O)[C@@H](C)CC [BP500, Ac-KKK(COC11H23)fKKILKYL-NH2] (Ac-KKK(Lauroyl)[dF]KKILKYL-NH2) : 6
